- EXPERIMENT_SUMMARY: Protein binding assay (HT dialysis), rat matrices
- Format: in vitro ADME
- ASSAY_SETUP: pH 7.4, Rat liver microsomes 0.5 mg/mL, Mean ± SEM, n = 3, read-out: Fu Microsomes
Consider the following compounds; for each one, report its fraction unbound at 6 h, 1 μM.
Lab note: jot the number down without any unit.

Incoming: Tell us which fraction unbound at 6 h, 1 μM value is on record for O=C(N[C@H]1CCCC[C@@H]1O)c1cn(Cc2ccnc(F)c2)c2c(F)ccc(F)c12
Outgoing: 0.606

Incoming: Tell us which fraction unbound at 6 h, 1 μM value is on record for O=C(N[C@H]1CCCC[C@@H]1O)c1cn(Cc2ccnc(Cl)c2)c2cccc(F)c12
Outgoing: 0.679

Incoming: Tell us which fraction unbound at 6 h, 1 μM value is on record for Cn1cc(Cn2cc(C(=O)N[C@H]3CCCC[C@@H]3O)c3c(F)ccc(F)c32)cn1
Outgoing: 0.779

Incoming: Tell us which fraction unbound at 6 h, 1 μM value is on record for O=C(N[C@H]1CCCC[C@@H]1O)c1cn(Cc2ccnc(F)c2)c2cccc(F)c12
Outgoing: 0.8
